B1: CPEB3 Ribozyme (parent)
chain: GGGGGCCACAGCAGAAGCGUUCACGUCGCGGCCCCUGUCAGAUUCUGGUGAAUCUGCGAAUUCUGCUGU

Variants of: B1
Assay: self-cleavage, relative activity (ratio to wild type); higher = more cleavage; co-transcriptional
measured.quantity: self-cleavage

The recorded self-cleavage for entry G41U U62G equals 0.391

The recorded self-cleavage for entry U21C C33A equals 0.516

# variant C7G C18A ; its self-cleavage = 0.0277

Please fill in: self-cleavage reported for U21G G58A = 0.281

Lab note: A52G A59U gave self-cleavage of 0.82

// self-cleavage lookup, variant = G30A U44G , result: 0.579

G11A A59G has a reported self-cleavage of 0.859

Just so you know, measured self-cleavage for G31C A42C came out at 0.227

The variant identified as U43C U49A registered its self-cleavage at 0.988

Record U43G C57G , field self-cleavage: 0.308

Briefly, self-cleavage measured for G41A C66A : 0.388

For G25C U44C the variant record lists self-cleavage as 0.144

Item: C24G C32A | self-cleavage: 0.224

A13G A23G has a reported self-cleavage of 0.804

Measured self-cleavage, A16C C24A : 0.161

GET /value?item= A10U G28C &field=self-cleavage returns 0.137

Value of measured self-cleavage for the entry A52U U64A : 0.87

Looking up G4C G48A , I found its self-cleavage recorded as 0.731

In plain terms, C39U U44C has a documented self-cleavage of 0.514

Input G5A G48U . Output self-cleavage: 0.939

// self-cleavage lookup, variant = G5C , result: 0.24

Sure, the documented self-cleavage for A16C U62A is 0.152
